- Test system: HPAF-II cells
- assay_explanation: In vitro cell proliferation inhibition (96-well, CTG, 72 hours)
- Type: cell-based
- details: Homo sapiens, monotherapy, applicant's previous cancer cell proliferation inhibition test data
readout_kind: pIC50
In plain terms, pIC50 is the concentration in mol/L turned into minus its base-10 logarithm.

Record O=[N+]([O-])c1ccc(C(OP(=O)(N2CC2)N2CC2)C(F)(F)F)cc1Oc1ccc(-c2ccc(F)cc2)c(F)c1 (stereo not shown) ; system HPAF-II cells; pIC50 = 6.48

---

- Test system: H460 P53 KO #1
- assay_explanation: In vitro cell proliferation inhibition under normoxia, p53 knockout cells
- Type: cell-based, human
- details: Homo sapiens, NCI-H460; H460 P53 KO # 1, normoxia, 72 hours; alone or with 3µM AST-3021 as labelled (Example 10)
readout_kind: IC50 (nM)
Return type: number; implicit unit nM.

For record O=[N+]([O-])c1ccc(C(OP(=O)(N2CC2)N2CC2)C(F)(F)F)cc1Oc1ccc(-c2ccc(F)cc2)c(F)c1 (stereo not shown) [AST] the listed IC50 is 264

---

- System: H460 P53 KO #1
- assay_explanation: In vitro cell proliferation inhibition under normoxia, p53 knockout cells
- Format: cell-based, human
- details: Homo sapiens, NCI-H460, 72 h, NCI-H460 P53KO # 1, normoxia, 72 hours; alone or with 3 µM AST-3021 as labelled (Example 13)
Form field: IC50 (one value per entry).
Return type: number; implicit unit nM.

Record CN(C)C(=O)c1cccc(Oc2cc3c(cc2[N+](=O)[O-])OCCC3OP(=O)(N2CC2)N2CC2)c1 (centres unmarked) [Compound C] ; system H460 P53 KO #1; IC50 = 36.1

Continuing:
Record C[C@H](OP(=O)(N1CC1)N1CC1)c1ccc([N+](=O)[O-])c(Oc2cccc(C(=O)N(C)C)c2)c1 [AST-3424] ; system H460 P53 KO #1; IC50 = 5.45
